Could you please report measured inhibition at 10 µM for the items listed next?
# EXPERIMENTAL_TARGET: human B1R receptor (hB1R) (Homo sapiens, UniProt P46663)
# Construct: expressed in transfected cells; host or cells: CHO K1 cells
# Sequence (P46663 whole entry): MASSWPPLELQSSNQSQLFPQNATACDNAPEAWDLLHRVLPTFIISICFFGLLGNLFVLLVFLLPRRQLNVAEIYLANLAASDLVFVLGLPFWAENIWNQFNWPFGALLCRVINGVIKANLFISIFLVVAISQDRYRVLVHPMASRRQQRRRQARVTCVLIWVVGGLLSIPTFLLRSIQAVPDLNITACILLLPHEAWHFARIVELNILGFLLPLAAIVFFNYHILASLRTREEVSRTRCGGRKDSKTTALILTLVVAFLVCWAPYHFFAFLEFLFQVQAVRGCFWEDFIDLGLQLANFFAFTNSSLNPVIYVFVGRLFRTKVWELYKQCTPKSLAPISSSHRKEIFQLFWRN
# MEASUREMENT_PROTOCOL: Functional investigation on the bradykinin 1 receptor (B1R), FLIPR Ca2+ assay, hB1R cells
# Type: cell-based
# EXPERIMENTAL_CONDITIONS: test substance 10 μM; CHO K1 cells transfected with human B1R gene; Fluo-4 Ca2+ signal; agonist Lys-Des-Arg9-bradykinin at EC80; % of maximum achievable inhibition; read-out: B1R antagonism, human [10 μM] % inhibition
Where a name gives a salt, the structure may show the parent alone.
Give just the numeric value; % need not be written.

Give inhibition at 10 µM (human B1R receptor (hB1R) (Homo sapiens, UniProt P46663)) of the following compound: Cc1cccc(Cl)c1S(=O)(=O)N1CCC[C@H]1CCCS(=O)(=O)N1CCC2(CCN(c3ccncc3)CC2)CC1 99

Similarly, COc1cc(C)c(S(=O)(=O)N2CCC(CCS(=O)(=O)N3CCC(CCN4CCCC4)CC3)C2)c(C)c1C (stereo not drawn) [Example 16, hydrochloride] ? 97

Similarly, Cc1cccc(Cl)c1S(=O)(=O)N1CCCCC1CCCS(=O)(=O)N1CCC2(CCN(c3ccncc3)CC2)CC1 (stereo not drawn) ? 99

====

# EXPERIMENTAL_TARGET: B1R receptor of the rat (rB1R) (Rattus norvegicus)
# Construct: expressed in transfected cells; host or cells: CHO K1 cells
# Sequence (P97583 whole entry): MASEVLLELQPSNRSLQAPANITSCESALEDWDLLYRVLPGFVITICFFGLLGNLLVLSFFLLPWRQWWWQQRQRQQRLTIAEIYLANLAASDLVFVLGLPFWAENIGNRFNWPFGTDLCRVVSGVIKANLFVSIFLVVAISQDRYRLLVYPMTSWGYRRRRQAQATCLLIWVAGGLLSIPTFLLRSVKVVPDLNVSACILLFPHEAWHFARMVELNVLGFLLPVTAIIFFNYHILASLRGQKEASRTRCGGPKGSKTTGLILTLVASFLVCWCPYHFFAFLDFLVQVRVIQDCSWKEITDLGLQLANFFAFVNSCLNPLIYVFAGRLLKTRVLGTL
# MEASUREMENT_PROTOCOL: Functional investigation on the bradykinin 1 receptor (B1R), FLIPR Ca2+ assay, rB1R cells
# Type: cell-based
# EXPERIMENTAL_CONDITIONS: test substance 10 μM; CHO K1 cells transfected with rat B1R gene; Fluo-4 Ca2+ signal; agonist Des-Arg9-bradykinin at EC80; % of maximum achievable inhibition; read-out: B1R antagonism, rat [10 μM] % inhibition
Counter-ions that a name gives are not always drawn.
VALUE_KIND: inhibition at 10 µM
The reply should read as a number followed by its unit.

inhibition at 10 µM for O=S(=O)(CCC[C@@H]1CCCN1S(=O)(=O)c1cccc2ccccc12)N1[C@@H]2CC[C@H]1C[C@H](Oc1ccncc1)C2 ? 94%

Similarly, O=S(=O)(CCC[C@@H]1CCCN1S(=O)(=O)c1cccc2ccccc12)N1CCC2(CCN(c3ccncc3)CC2)CC1 [Example 67, hydrochloride] ? 97%

Similarly, O=S(=O)(CCC[C@@H]1CCCN1S(=O)(=O)c1cccc(Cl)c1Cl)N1[C@@H]2CC[C@H]1C[C@H](Oc1ccncc1)C2 ? 100%

Source: patent US8119805B2
